assay-target: D(3) dopamine receptor (Homo sapiens, UniProt P35462)
Sequence (P35462 whole entry): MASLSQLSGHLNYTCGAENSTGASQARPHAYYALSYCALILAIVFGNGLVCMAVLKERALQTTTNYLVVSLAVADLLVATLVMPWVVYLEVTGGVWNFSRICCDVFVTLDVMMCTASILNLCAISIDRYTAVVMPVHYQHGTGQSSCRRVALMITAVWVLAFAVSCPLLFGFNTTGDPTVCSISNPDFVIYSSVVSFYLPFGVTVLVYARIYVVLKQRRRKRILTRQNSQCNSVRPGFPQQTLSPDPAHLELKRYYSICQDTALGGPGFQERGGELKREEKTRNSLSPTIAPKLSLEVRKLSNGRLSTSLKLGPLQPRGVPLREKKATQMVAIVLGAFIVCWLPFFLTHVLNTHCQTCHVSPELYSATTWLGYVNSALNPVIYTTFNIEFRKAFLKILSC
pIC50: −log10 of the molar value.
measured-endpoint: pIC50

Report value: pIC50, system: D(3) dopamine receptor (Homo sapiens, UniProt P35462), compound: CN(C)CC/C=C/c1cccnc1
< 5.00

----------
What follows is a record of pIC50 for Muscarinic acetylcholine receptor M2 (Rattus norvegicus).
Please express pIC50 as -log10 of the molar concentration.

Examples with answers:
structure-as-smiles: c1cc2c[n+](c1)CCCCCCCCCCCCc1ccc[n+](c1)CCCCCCCCCCCC2
numeric-result: 4.44
--
structure-as-smiles: c1cc2c[n+](c1)CCCCCCCCCCCCCCc1ccc[n+](c1)CCCCCCCCCCCCC2
numeric-result: 3.76
--
structure-as-smiles: c1cc2c[n+](c1)CCCCCCCCCCCCCc1ccc[n+](c1)CCCCCCCCCCCC2
numeric-result: 4.37
--
structure-as-smiles: c1cc2c[n+](c1)CCCCCCCCCCCCCCc1ccc[n+](c1)CCCCCCCCCCCC2
numeric-result: 4.10
--
structure-as-smiles: c1cc2c[n+](c1)CCCCCCCCCCCCCc1ccc[n+](c1)CCCCCCCCCCCCC2
numeric-result: 4.14

Turning now to a further record.
Report pIC50, nothing else, for this compound: c1cc2c[n+](c1)CCCCCCCCCCCCCCc1ccc[n+](c1)CCCCCCCCCCCCCC2
3.71

Where do the numbers come from? From ChEMBL document CHEMBL4673260.
